These entries and their values trace back to patent US20090136516A1.

Each item that follows carries a reported mean linear fluorescence intensity.
Biological target: T1, human CD20 (human, UniProt P11836 1-297)
T1 construct: whole, on cells; also called cell surface CD20
T1 sequence (looked up): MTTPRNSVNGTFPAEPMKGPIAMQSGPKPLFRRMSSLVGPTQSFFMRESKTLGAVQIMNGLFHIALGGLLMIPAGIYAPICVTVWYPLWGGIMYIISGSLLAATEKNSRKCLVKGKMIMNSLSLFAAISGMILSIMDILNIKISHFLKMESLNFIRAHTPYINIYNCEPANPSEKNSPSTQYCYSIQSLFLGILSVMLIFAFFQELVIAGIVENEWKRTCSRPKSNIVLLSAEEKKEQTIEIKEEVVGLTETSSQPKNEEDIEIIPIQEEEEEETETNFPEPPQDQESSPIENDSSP
Assay: indirect immunofluorescence, flow cytometry, human blood B cells, saturating mAb
measured.parameter: mean linear fluorescence intensity

binder: HB20-3 monoclonal antibody (antibody, V domains shown, Used as tissue culture supernatant; also called HB20-03; HB13c) VH: EVQLQESGAELVKPGASVKMSCKASGFTFTNYNMHWLKQTPGQGLEWIGAIYPENGDTSYNQKFKGKATLTADKASSTAYMHLSSLTSEDSAVYFCARFYYYGSYYGAMDYWGQGTSVTVSS VL: DIQMTQSPASLSASVGETVTITCRASGNIHNYLAWYQQKQGKSPQLLVYNAKTLADGVPSRFSGSGSGTQFSLKINSLQPEDFGSYYCQHFWSTPWTFGGGTKLEIKR
measured.parameter: mean linear fluorescence intensity
observed.measurement: 469 mean linear fluorescence intensity
//
binder: HB20-25 monoclonal antibody (antibody, V domains shown, Used as tissue culture supernatant) VH: EVQLQESGAELVKPGASVKMSCKASGFRFTNYNLHWVKQTPGQGLEWIGAIYPGNGETSYNQKFKGKATLTADKSSSTAYMQLRSLTSGDSAVYYCARFYYYGSSYGAMDYWGQGTSVTVSS VL: DIQMTQSPASLSVSVGETVTITCRASENIYSNLAWYQQKQGKSPQLLVYAATNLADGVPSRFSGSGSGTQYSLKINSLQSEDFGSYYCQHFWGIPWTFGGGTKLEIKR
measured.parameter: mean linear fluorescence intensity
observed.measurement: 227 mean linear fluorescence intensity
//
binder: B9E9 anti-CD20 monoclonal antibody (antibody, V domains shown) VH: QVQLVQSGAELVKPGASVKMSCKASGYTFTSYNMHWVKQTPGQGLEWIGAIYPGNGDTSYNQKFKGKATLTADKSSSTAYMQLSSLTSEDSAVYYCARAQLRPNYWYFDVWGAGTTVTVSS VL: DIVLSQSPAILSASPGEKVTMTCRASSSVSYMHWYQQKPGSSPKPWIYATSNLASGVPARFSGSGSGTSYSLTISRVEAEDAATYYCQQWISNPPTFGAGTKLELK
measured.parameter: mean linear fluorescence intensity
observed.measurement: 112 mean linear fluorescence intensity
